// provenance: ChEMBL document CHEMBL4052830

# system: Nicotinic acetylcholine receptor alpha-4/beta-2 (Mus musculus, UniProt Q8R493+Q9ERK7)
# Sequence (Q9ERK7 whole entry): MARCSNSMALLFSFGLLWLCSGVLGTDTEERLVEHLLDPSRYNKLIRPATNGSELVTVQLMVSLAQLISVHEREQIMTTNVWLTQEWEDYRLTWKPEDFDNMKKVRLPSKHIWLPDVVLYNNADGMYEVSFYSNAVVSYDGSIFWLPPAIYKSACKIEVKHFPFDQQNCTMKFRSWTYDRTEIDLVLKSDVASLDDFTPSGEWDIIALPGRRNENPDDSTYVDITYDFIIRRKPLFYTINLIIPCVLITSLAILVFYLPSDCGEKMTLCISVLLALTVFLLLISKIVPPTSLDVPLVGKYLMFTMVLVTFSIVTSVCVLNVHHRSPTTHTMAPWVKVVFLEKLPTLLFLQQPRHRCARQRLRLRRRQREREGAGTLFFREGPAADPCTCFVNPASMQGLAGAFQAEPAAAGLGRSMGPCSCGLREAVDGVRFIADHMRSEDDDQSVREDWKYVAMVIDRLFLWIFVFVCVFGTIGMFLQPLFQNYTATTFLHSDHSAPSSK
# Sequence (Q8R493 whole entry): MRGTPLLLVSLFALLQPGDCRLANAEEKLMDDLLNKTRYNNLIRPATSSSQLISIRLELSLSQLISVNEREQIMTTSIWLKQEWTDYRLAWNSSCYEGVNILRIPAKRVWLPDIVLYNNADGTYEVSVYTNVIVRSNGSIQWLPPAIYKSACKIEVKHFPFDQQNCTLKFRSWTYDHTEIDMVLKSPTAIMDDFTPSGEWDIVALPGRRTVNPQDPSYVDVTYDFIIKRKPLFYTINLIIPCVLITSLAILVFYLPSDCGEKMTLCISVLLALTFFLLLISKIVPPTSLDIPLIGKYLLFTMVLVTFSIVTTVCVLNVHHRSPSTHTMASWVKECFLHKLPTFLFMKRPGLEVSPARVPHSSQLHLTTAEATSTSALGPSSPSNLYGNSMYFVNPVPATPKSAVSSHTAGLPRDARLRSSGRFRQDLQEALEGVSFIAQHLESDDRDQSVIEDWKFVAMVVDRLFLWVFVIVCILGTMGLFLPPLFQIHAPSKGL
# assay_summary: Antagonist activity at mouse alpha4beta2 nAChR expressed in HEK293 cells assessed as inhibition of (S)-nicotine-induced […] response measured up to 90 secs by FMP assay
Reported IC50 is given for each of the following compounds.
Give your result in µM as a bare value.

In the examples that follow, each entry is paired with its recorded IC50.
>>> data_value("COc1cc2c(cc1OCc1ccccc1)CC[N+](C)(C)C2")
7.2
>>> data_value("COc1cc2c(cc1OC)[C@H]1CCCN1CC2")
16
>>> data_value("COc1cc2c(cc1OCc1ccccc1)C1CCC[N+]1(C)CC2 (stereo not drawn)")
5.7
>>> data_value("COc1cc2c(cc1OC)C[N+](C)(C)CC2")
11

Kindly note the recorded IC50 for COc1cc2c(cc1OC)[C@H]1CCC[N+]1(C)CC2 (stereo partly drawn) , which is 7.2

Kindly note the recorded IC50 for COc1ccc2c(c1)CC[N+](C)(C)C2 , which is 1.4

Kindly note the recorded IC50 for COc1cc2c(cc1OC)C1CCC[N+]1(C)CC2 (stereo not drawn) , which is 30

Kindly note the recorded IC50 for COc1cc2c(cc1OCc1ccccc1)CCN(C)C2 , which is 24

Kindly note the recorded IC50 for C[N+]12CCCC1c1ccccc1CC2 (stereo not drawn) , which is 50

Kindly note the recorded IC50 for CCC[N+]1(C)CCc2cc(OC)c(OC)cc2C1 (stereo not drawn) , which is 30

Kindly note the recorded IC50 for c1c2c(cc3c1OCO3)[C@@H]1CCCN1CC2 , which is 30

----------
# system: Neuronal acetylcholine receptor; alpha4/beta2 (Rattus norvegicus, UniProt P09483+P12390)
# Sequence (P09483 whole entry): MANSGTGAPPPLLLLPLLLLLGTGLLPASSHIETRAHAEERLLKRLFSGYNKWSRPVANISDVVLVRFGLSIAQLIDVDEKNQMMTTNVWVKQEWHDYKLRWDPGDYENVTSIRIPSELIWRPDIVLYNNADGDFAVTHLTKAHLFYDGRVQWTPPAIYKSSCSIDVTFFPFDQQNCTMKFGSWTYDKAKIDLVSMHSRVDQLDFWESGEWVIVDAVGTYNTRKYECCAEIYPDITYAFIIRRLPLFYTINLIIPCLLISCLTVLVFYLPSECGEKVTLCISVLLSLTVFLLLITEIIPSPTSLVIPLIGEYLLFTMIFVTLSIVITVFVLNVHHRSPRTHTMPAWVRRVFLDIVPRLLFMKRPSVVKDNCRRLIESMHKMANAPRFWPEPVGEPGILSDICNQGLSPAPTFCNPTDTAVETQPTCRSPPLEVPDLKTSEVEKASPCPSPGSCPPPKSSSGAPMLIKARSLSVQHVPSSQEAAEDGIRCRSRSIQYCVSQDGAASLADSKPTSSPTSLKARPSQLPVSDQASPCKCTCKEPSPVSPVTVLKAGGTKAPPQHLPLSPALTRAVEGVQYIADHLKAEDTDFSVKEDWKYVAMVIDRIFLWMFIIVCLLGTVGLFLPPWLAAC
# Sequence (P12390 whole entry): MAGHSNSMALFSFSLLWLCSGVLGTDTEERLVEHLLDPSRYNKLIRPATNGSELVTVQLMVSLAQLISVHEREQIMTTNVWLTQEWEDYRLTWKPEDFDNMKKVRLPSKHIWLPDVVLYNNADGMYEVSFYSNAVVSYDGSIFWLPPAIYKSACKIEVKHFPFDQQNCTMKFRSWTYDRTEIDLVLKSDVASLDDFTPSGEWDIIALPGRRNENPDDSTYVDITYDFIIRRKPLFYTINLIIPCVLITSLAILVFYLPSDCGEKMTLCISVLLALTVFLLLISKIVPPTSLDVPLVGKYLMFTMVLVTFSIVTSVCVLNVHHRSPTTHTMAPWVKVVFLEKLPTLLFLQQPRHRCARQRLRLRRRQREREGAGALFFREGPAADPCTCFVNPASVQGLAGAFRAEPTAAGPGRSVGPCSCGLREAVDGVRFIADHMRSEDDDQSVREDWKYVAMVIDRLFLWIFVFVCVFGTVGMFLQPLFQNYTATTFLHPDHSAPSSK
# assay_summary: Displacement of [3H]epibatidine from rat alpha4beta2 nAChR expressed in HEK293 cell membranes after 4 hrs by scintillation counting method
pKi: −log10 of the molar value.
Given measured pKi, output met if it is greater than or equal to 6 and not met if not.

Use these answered entries as a reference point.
>>> class("C[N+]12CCCC1c1ccccc1CC2 (stereo unspecified)")
"not met"
>>> class("COc1cc2c(cc1OCc1ccccc1)CC[N+]1(C)CCCC21 (stereo unspecified)")
"not met"
>>> class("COc1cc2c(cc1OC)[C@@H]1CCCN1CC2")
"not met"
>>> class("COc1cc2c(cc1OC)C[N+](C)(Cc1ccccc1)CC2 (stereo unspecified)")
"not met"
>>> class("COc1cc2c(cc1OCc1ccccc1)C[N+](C)(C)CC2")
"not met"
>>> class("COc1ccc2c(c1)C1CCC[N+]1(C)CC2 (stereo unspecified)")
"met"
>>> class("COc1cc2c(cc1OCc1ccccc1)CCN(C)C2")
"not met"
>>> class("c1c2c(cc3c1OCO3)[C@@H]1CCCN1CC2")
"not met"

# input Does pKi meet or surpass 6 for COc1cc2c(cc1OCc1ccccc1)CN(C)CC2 ?
# output not met

# input Does pKi meet or surpass 6 for COc1cc2c(cc1O)C[N+](C)(C)CC2 ?
# output met

# input Does pKi meet or surpass 6 for COc1cc2c(cc1OC)C1CCC[N+]1(C)CC2 (stereo unspecified) ?
# output not met

# input Does pKi meet or surpass 6 for COc1ccc(CC2c3cc(OC)c(OC)cc3CC[N+]2(C)C)cc1OC (stereo unspecified) ?
# output not met

# input Does pKi meet or surpass 6 for CCC[N+]1(C)CCc2cc(OC)c(OC)cc2C1 (stereo unspecified) ?
# output not met

# input Does pKi meet or surpass 6 for CC[N+]1(C)CCc2cc(OC)c(OC)cc2C1 (stereo unspecified) ?
# output not met

----------
# system: Neuronal acetylcholine receptor; alpha4/beta4 (Rattus norvegicus, UniProt P09483+P12392)
# Sequence (P12392 whole entry, one chain of several): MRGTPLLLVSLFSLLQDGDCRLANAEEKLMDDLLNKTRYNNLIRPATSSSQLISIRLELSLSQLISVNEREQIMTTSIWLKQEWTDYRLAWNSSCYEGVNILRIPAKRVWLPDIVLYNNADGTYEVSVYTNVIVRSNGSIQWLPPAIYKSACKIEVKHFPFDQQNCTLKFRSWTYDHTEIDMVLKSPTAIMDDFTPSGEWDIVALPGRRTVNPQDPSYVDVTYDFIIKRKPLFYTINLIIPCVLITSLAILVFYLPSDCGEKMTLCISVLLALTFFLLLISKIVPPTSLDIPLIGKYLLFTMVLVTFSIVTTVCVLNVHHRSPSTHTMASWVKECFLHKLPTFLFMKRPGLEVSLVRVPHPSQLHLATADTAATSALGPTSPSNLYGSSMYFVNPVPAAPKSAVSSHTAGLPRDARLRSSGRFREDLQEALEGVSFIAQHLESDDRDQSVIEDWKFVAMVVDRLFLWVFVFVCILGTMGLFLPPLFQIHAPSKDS
# assay_summary: Displacement of [3H]epibatidine from rat alpha4beta4 nAChR expressed in HEK293 cell membranes after 4 hrs by scintillation counting method
test_readout: pKi
Expect pKi as a plain number equal to -log10 of the molar concentration.

Kindly note the recorded pKi for COc1cc2c(cc1OCc1ccccc1)CC[N+]1(C)CCCC21 (stereo unspecified) , which is 3.52

Kindly note the recorded pKi for COc1cc2c(cc1OCc1ccccc1)CC[N+](C)(C)C2 , which is 4.30

Kindly note the recorded pKi for COc1cc2c(cc1OC)[C@@H]1CCC[N+]1(C)CC2 (stereo partly specified) , which is 5.12

Kindly note the recorded pKi for COc1ccc2c(c1)CC[N+](C)(C)C2 , which is 5.82

Kindly note the recorded pKi for COc1cc2c(cc1OC)C[N+](C)(C)CC2 , which is 4.30

----------
Reported Ki is given for each of the following compounds.
# system: Neuronal acetylcholine receptor; alpha4/beta4 (Rattus norvegicus, UniProt P09483+P12392)
# assay_summary: Displacement of [3H]epibatidine from rat alpha4beta4 nAChR expressed in HEK293 cell membranes after 4 hrs by scintillation counting method
Give your result in µM as a bare value.

In the examples that follow, each entry is paired with its recorded Ki.
>>> data_value("COc1cc2c(cc1OC)C1CCC[N+]1(C)CC2 (stereo unspecified)")
30
>>> data_value("c1ccc2c(c1)CCN1CCCC21 (stereo unspecified)")
100
>>> data_value("CCC[N+]1(C)CCc2cc(OC)c(OC)cc2C1 (stereo unspecified)")
300
>>> data_value("C[N+]12CCC[C@H]1c1cc3c(cc1CC2)OCO3 (stereo partly specified)")
25

Attention now turns to another entry.
Kindly note the recorded Ki for COc1cc2c(cc1OCc1ccccc1)C1CCCN1CC2 (stereo unspecified) , which is 300

----------
# system: Nicotinic acetylcholine receptor alpha-4/beta-2 (Mus musculus, UniProt Q8R493+Q9ERK7)
# assay_summary: Antagonist activity at mouse alpha4beta2 nAChR expressed in HEK293 cells assessed as inhibition of (S)-nicotine-induced […] response measured up to 90 secs by FMP assay
Class assignment keyed on IC50, ranges lower segment (below 2 µM), middle segment (2 µM to below 20 µM), upper segment (20 µM or more)

>>> class("COc1ccc2c(c1)CCN(C)C2")
"middle segment"
>>> class("COc1cc2c(cc1OCc1ccccc1)C[N+](C)(C)CC2")
"upper segment"
>>> class("c1ccc2c(c1)CCN1CCCC21 (stereo not drawn)")
"middle segment"

# input Entry COc1ccc2c(c1)CC[N+]1(C)CCCC21 (stereo not drawn) belongs to which category?
# output upper segment

# input Entry COC1CC=C2CCN3CCC4=C(CC(=O)OC4)[C@]23C1 (stereo partly drawn) belongs to which category?
# output lower segment

----------
Reported pIC50 is given for each of the following compounds.
# system: Neuronal acetylcholine receptor subunit alpha-7 (Homo sapiens, UniProt P36544)
# Sequence (P36544 whole entry): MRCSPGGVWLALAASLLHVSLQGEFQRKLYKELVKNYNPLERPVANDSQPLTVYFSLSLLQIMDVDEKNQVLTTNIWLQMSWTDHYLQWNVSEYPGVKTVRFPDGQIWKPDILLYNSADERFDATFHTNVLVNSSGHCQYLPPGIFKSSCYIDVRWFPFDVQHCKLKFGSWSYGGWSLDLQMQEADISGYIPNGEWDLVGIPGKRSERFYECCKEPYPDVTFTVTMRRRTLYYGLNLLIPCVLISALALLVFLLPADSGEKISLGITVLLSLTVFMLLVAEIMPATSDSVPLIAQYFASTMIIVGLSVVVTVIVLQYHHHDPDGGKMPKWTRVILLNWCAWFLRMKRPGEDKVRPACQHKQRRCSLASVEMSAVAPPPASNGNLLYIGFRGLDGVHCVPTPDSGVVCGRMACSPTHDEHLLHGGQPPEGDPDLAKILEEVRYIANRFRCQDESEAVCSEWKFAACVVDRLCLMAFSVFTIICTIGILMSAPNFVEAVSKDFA
# assay_summary: Antagonist activity at human alpha7 nAChR expressed in HEK293 cells co-expressing Ric-3/NACHO assessed as inhibition of ACh-induced calcium mobilization measured up to 90 secs in presence of PNU-120596 by FLIPR assay
pIC50: −log10 of the molar value.

>>> data_value("COc1cc2c(cc1OC)C[N+](C)(Cc1ccccc1)CC2 (stereo not drawn)")
5.70
>>> data_value("c1ccc2c(c1)CCN1CCCC21 (stereo not drawn)")
4.00
>>> data_value("COc1cc2c(cc1OCc1ccccc1)CCN(C)C2")
4.52

Attention now turns to another entry.
Neuronal acetylcholine receptor subunit alpha-7 (Homo sapiens, UniProt P36544) pIC50 of COC1CC=C2CCN3CCC4=C(CC(=O)OC4)[C@]23C1 (stereo partly drawn) is 4.00

----------
# system: Nicotinic acetylcholine receptor alpha-4/beta-2 (Mus musculus, UniProt Q8R493+Q9ERK7)
# assay_summary: Antagonist activity at mouse alpha4beta2 nAChR expressed in HEK293 cells assessed as inhibition of (S)-nicotine-induced […] response measured up to 90 secs by FMP assay
test_readout: IC50 (µM)
Give your result in µM as a bare value.

In the examples that follow, each entry is paired with its recorded IC50.
>>> data_value("COc1cc2c(cc1OCc1ccccc1)C1CCCN1CC2 (configuration not stated)")
50
>>> data_value("COc1cc2c(cc1OC)C[N+](C)(Cc1ccccc1)CC2 (configuration not stated)")
30
>>> data_value("COc1cc2c(cc1OC)C1CCCN1CC2 (configuration not stated)")
30

Kindly note the recorded IC50 for COc1ccc2c(c1)C1CCC[N+]1(C)CC2 (configuration not stated) , which is 1.8

Kindly note the recorded IC50 for C[N+]1(C)CCc2cc3c(cc2C1)OCO3 , which is 12

Kindly note the recorded IC50 for COc1cc2c(cc1OCc1ccccc1)CN(C)CC2 , which is 23

Kindly note the recorded IC50 for COc1cc2c(cc1OCc1ccccc1)CCN1CCCC21 (configuration not stated) , which is 30

Kindly note the recorded IC50 for C[N+]12CCC[C@@H]1c1cc3c(cc1CC2)OCO3 (some centres not stated) , which is 0.22

Kindly note the recorded IC50 for COc1cc2c(cc1O)C[N+](C)(C)CC2 , which is 1.2

Kindly note the recorded IC50 for C=CC[N+]1(C)CCc2cc(OC)c(OC)cc2C1 (configuration not stated) , which is 30
